From: patent US20240270699A1

Test system: Jurkat cells
procedureDetails: IL-2 release Jurkat assay (anti-CD3/anti-CD28 stimulation, IL-2 ELISA)
Format: cell-based, human
testParameters: Table B: Jurkat, 1.5 μM of tested compounds, activation with 400 ng/mL aCD3 + 400 ng/mL aCD28, 24 hours
quantityKind: IL-2, pg/mL stimulated

CC(C)NC(=O)c1cnc(Nc2ccc(S(C)(=O)=O)c(F)c2)nc1N[C@H](CO)c1ccccc1 : A (IL-2<5.0 pg/mL)
CCOC(=O)c1cnc(Nc2ccc3c(c2)CCNC3=O)nc1N[C@@H](CO)c1ccccc1 : A (IL-2<5.0 pg/mL)
CCOC(=O)c1cnc(Nc2ccc(S(C)(=O)=O)c(F)c2)nc1N[C@H](CO)c1ccccc1 : D (35.0 pg/mL≤IL-2)
CCNC(=O)c1cnc(Nc2ccc3c(c2)CCN(C)C3=O)nc1N[C@H](CO)c1ccccc1 : D (35.0 pg/mL≤IL-2)
